Source: patent US12441718B2

Target Or Test System: human recombinant AT2 receptor (Homo sapiens)
Construct: purchased Eurofins ITEM26 (protocol number)
Sequence (P50052 whole entry): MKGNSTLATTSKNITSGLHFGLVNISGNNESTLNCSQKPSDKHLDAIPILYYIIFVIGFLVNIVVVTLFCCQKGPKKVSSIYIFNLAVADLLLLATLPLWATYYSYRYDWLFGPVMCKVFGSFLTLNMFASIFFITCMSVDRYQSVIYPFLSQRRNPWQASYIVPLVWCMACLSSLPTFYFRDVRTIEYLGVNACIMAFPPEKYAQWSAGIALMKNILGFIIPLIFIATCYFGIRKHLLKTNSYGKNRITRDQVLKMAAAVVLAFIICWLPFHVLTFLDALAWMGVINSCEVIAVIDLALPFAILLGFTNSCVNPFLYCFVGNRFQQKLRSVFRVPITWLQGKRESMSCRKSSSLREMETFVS
Protocol: Binding to AT2 receptor, radiometric scintillation assay (Eurofins ITEM26)
Stated Conditions: test compounds at 1, 10, 100 and 1000 nM, ligand 125I CGP 42112A; * rows = mean of runs; read-out: AT2 GraFit IC50
Readout Type: IC50 (nM)

Example entries and their recorded answers appear below.
{"columns": ["Molecule", "Value Measured"],
 "data": [
  ["COc1ccc(NS(=O)(=O)c2ccc(CC(C)C)cc2-c2ccc(Cn3ccnc3C(C)(C)C)cc2)nn1 [Example 14]", 5.2],
  ["CC(C)Cc1ccc(S(=O)(=O)Nc2ncc(F)cn2)c(-c2ccc(Cn3ccnc3C(C)(C)C)cc2)c1 [Example 3]", 4.79],
  ["Cc1cnc(NS(=O)(=O)c2ccc(CC(C)C)cc2-c2ccc(Cn3ccnc3C(C)(C)C)c(F)c2)nc1 [Example 26]", 0.84],
  ["CC(C)Cc1ccc(S(=O)(=O)Nc2nccs2)c(-c2ccc(Cn3ccnc3C(C)(C)C)c(F)c2)c1 [Example 8]", 5.85]
]}

I = CC(C)Cc1ccc(S(=O)(=O)Nc2ncccn2)c(-c2ccc(Cn3ccnc3)c(F)c2)c1 [Example 30]
II = Cc1nc(NS(=O)(=O)c2ccc(CC(C)C)cc2-c2ccc(Cn3ccnc3C(C)(C)C)cc2)oc1C [Example 13]
III = CC(C)Cc1ccc(S(=O)(=O)Nc2ncc(C(F)(F)F)cn2)c(-c2ccc(Cn3ccnc3C(C)(C)C)cc2)c1 [Example 4]
IV = CC(C)Cc1ccc(S(=O)(=O)Nc2ncc(C(F)(F)F)cn2)c(-c2ccc(Cn3ccnc3C(C)(C)C)c(F)c2)c1 [Example 21]
V = Cc1cnc(NS(=O)(=O)c2ccc(CC(C)C)cc2-c2ccc(Cn3ccnc3C(C)(C)C)cc2)nc1 [Example 20]
Query block: # rank_down: sort by IC50, max first Provide the ranking by listing each label in its place in the requested order.
Result block: II, III, V, IV, I
(II: 45.8 nM, III: 12.4 nM, V: 7.5 nM, IV: 2.7 nM, I: 1.01 nM)

###

Target Or Test System: CYP2B6 (Homo sapiens, UniProt P20813)
Construct: isoform-specific substrates incubated with human liver microsomes; tissue Eurofins ITEMG232 (protocol number); host or cells: human liver microsomes
Sequence (P20813 whole entry, canonical isoform): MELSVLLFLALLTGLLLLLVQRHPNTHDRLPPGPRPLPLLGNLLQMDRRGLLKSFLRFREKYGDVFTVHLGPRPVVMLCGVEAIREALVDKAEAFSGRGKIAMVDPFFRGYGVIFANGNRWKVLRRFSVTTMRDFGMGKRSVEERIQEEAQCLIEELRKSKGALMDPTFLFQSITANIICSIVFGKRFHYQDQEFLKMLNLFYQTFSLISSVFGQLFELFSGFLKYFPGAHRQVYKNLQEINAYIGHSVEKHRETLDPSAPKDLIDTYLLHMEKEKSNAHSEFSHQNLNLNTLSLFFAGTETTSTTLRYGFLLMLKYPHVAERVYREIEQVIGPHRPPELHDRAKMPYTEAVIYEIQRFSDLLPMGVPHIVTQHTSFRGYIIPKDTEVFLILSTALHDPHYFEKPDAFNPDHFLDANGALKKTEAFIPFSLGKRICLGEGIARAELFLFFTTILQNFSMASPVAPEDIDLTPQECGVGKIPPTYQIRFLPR
Protocol: CYP inhibition in human liver microsomes (Eurofins ITEMG232)
Assay type: in vitro ADME
Stated Conditions: probe bupropion, substrate bupropion, read-out: CYP2B6 Inh %
Readout Type: inhibition at 10 µM (%)

I = CCc1nccn1Cc1ccc(-c2cc(CC(C)C)sc2S(=O)(=O)Nc2ncccn2)cc1F
II = CC(C)Cc1ccc(S(=O)(=O)Nc2ncc(Cl)cn2)c(-c2ccc(Cn3ccnc3C(C)(C)C)c(F)c2)c1
III = CC(C)Cc1ccc(S(=O)(=O)Nc2ncc(F)cn2)c(-c2ccc(Cn3ccnc3C(C)(C)C)cc2)c1
IV = Cc1nc(NS(=O)(=O)c2ccc(CC(C)C)cc2-c2ccc(Cn3ccnc3C(C)(C)C)cc2)oc1C
V = COc1ccc(NS(=O)(=O)c2ccc(CC(C)C)cc2-c2ccc(Cn3ccnc3C(C)(C)C)c(F)c2)nn1
Query block: With the 5 molecules above, produce a list ordered by ascending inhibition at 10 µM. // format: requested-order list of labels
Result block: III, V, I, IV, II
(III: -0.5%, V: 5.7%, I: 16%, IV: 30.4%, II: 58.3%)

###

Protocol: Metabolic stability in pooled human liver microsomes
Assay type: in vitro ADME
Stated Conditions: human, pooled human liver microsomes, pooled human liver microsomes 0.5 mg/mL, 1 μM test compound, 37° C., with 1 mM NADPH; * rows = mean of two runs; read-out: T1/2, + NaDPH
Readout Type: half-life at 1 μM (min)

Here is how some compounds turned out for half-life at 1 μM.
{"columns": ["Substance Smiles", "half-life at 1 μM (min)"],
 "data": [
  ["CC(C)Cc1ccc(S(=O)(=O)Nc2ncccn2)c(-c2ccc(Cn3ccnc3C(C)C)cc2)c1", 57],
  ["CC(C)Cc1ccc(S(=O)(=O)Nc2ccsn2)c(-c2ccc(Cn3ccnc3C(C)(C)C)c(F)c2)c1", 14]
]}

1 = COc1ccc(NS(=O)(=O)c2ccc(CC(C)C)cc2-c2ccc(Cn3ccnc3C(C)(C)C)c(F)c2)nn1
2 = CC(C)Cc1ccc(S(=O)(=O)Nc2ncccn2)c(-c2ccc(Cn3ccnc3)c(F)c2)c1
Query block: half-life at 1 μM comparison. Which is larger, 1 or 2 ? Your choice should be expressed through its label.
Result block: 2

###

Protocol: Metabolic stability in pooled human liver microsomes
Type: in vitro ADME
Stated Conditions: human, pooled human liver microsomes, pooled human liver microsomes 0.5 mg/mL, 1 μM test compound, 37° C., with 1 mM NADPH; * rows = mean of two runs; read-out: T1/2, + NaDPH
Readout Type: half-life at 1 μM (min)

Examples from the recorded data:
{"columns": ["Substance Smiles", "half-life at 1 μM, min"],
 "data": [
  ["CC(C)Cc1ccc(S(=O)(=O)Nc2ncc(C#N)cn2)c(-c2ccc(Cn3ccnc3C(C)(C)C)c(F)c2)c1", 58],
  ["CCc1nccn1Cc1ccc(-c2cc(CC(C)C)ccc2S(=O)(=O)Nc2ncccn2)cc1", 45]
]}

P = CC(C)Cc1ccc(S(=O)(=O)Nc2ncccn2)c(-c2ccc(Cn3ccnc3)cc2)c1
Q = COc1ncncc1NS(=O)(=O)c1ccc(CC(C)C)cc1-c1ccc(Cn2ccnc2C(C)(C)C)c(F)c1
Query block: Lab log: flag the item ( P or Q ) with the smaller half-life at 1 μM figure. Please indicate the selected item by its label.
Result block: Q
(Q: 8 min, P: 58 min)

###

Target Or Test System: UniProtKB P11712
Sequence (P11712 whole entry): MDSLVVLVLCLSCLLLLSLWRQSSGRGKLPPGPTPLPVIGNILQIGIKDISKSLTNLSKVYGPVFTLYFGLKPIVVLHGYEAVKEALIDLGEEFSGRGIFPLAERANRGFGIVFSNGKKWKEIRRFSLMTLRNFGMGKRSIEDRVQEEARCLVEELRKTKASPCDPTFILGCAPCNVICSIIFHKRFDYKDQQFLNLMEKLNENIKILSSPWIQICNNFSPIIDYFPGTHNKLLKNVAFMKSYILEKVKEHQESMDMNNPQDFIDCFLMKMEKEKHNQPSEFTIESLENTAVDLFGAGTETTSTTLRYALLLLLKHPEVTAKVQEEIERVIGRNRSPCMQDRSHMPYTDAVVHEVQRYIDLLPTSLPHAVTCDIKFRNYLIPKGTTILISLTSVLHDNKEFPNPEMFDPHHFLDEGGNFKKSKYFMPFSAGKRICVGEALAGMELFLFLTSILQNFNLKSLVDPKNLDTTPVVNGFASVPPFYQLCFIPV
Protocol: CYP inhibition in human liver microsomes (Eurofins ITEMG232)
Format: in vitro ADME
Set-up: isoform-specific substrates incubated with human liver microsomes; tissue Eurofins ITEMG232 (protocol number); host or cells: human liver microsomes
Stated Conditions: human, probe diclofenac, substrate diclofenac, read-out: CYP2C9 Inh %
Readout Type: inhibition at 10 µM (%)

{"columns": ["Substance Smiles", "U", "inhibition at 10 µM"],
 "data": [
  ["CC(C)Cc1ccc(S(=O)(=O)Nc2ncc(C#N)cn2)c(-c2ccc(Cn3ccnc3C(C)(C)C)c(F)c2)c1", "%", 82.3],
  ["CC(C)Cc1ccc(S(=O)(=O)Nc2ncc(C(F)(F)F)cn2)c(-c2ccc(Cn3ccnc3C(C)(C)C)c(F)c2)c1", "%", 76.8],
  ["CC(C)Cc1ccc(S(=O)(=O)Nc2ncc(C(F)(F)F)cn2)c(-c2ccc(Cn3ccnc3C(C)(C)C)cc2)c1", "%", 68.3]
]}

###

Protocol: Metabolic stability in pooled human liver microsomes
Format: in vitro ADME
Stated Conditions: human, pooled human liver microsomes, pooled human liver microsomes 0.5 mg/mL, 1 μM test compound, 37° C., with 1 mM NADPH; * rows = mean of two runs; read-out: T1/2, + NaDPH
Catalogue of molecules with associated half-life at 1 μM

In the examples that follow, each entry is paired with its recorded half-life at 1 μM.
{"columns": ["Substance Smiles", "half-life at 1 μM"],
 "data": [
  ["CC(C)Cc1ccc(S(=O)(=O)Nc2ncc(C(F)(F)F)cn2)c(-c2ccc(Cn3ccnc3C(C)(C)C)cc2)c1", "> 60 min"],
  ["CCc1nccn1Cc1ccc(-c2cc(CC(C)C)ccc2S(=O)(=O)Nc2ncccn2)cc1F", "> 60 min"],
  ["Cc1nccn1Cc1ccc(-c2cc(CC(C)C)sc2S(=O)(=O)Nc2ncccn2)cc1F", "> 60 min"],
  ["CC(C)Cc1cc(-c2ccc(Cn3ccnc3C3CC3)cc2)c(S(=O)(=O)Nc2ncccn2)s1", "> 60 min"]
]}

Query block: Quick one: half-life at 1 μM for CC(C)Cc1ccc(S(=O)(=O)Nc2ncccn2)c(-c2ccc(Cn3ccnc3C(C)(C)C)cc2)c1 ?
Result block: > 60 min

Query block: May I ask what half-life at 1 μM has been recorded for CC(C)Cc1ccc(S(=O)(=O)Nc2ncc(Br)cn2)c(-c2ccc(Cn3ccnc3C(C)(C)C)cc2)c1 ?
Result block: > 60 min

Query block: Look up half-life at 1 μM: CC(C)Cc1cc(-c2ccc(Cn3ccnc3)c(F)c2)c(S(=O)(=O)Nc2ncccn2)s1
Result block: > 60 min

Query block: For the molecule CC(C)Cc1ccc(S(=O)(=O)Nc2ncccn2)c(-c2ccc(Cn3ccnc3C3CC3)cc2)c1 , what half-life at 1 μM is on record?
Result block: > 60 min

Query block: # get_value(readout='half-life at 1 μM', item= CC(C)Cc1ccc(S(=O)(=O)Nc2ncccn2)c(-c2ccc(Cn3ccnc3C(C)(C)C)c(F)c2)c1 )
Result block: 54 min

Query block: So what does the record say about half-life at 1 μM for Cc1cnc(NS(=O)(=O)c2ccc(CC(C)C)cc2-c2ccc(Cn3ccnc3C(C)(C)C)cc2)nc1 ?
Result block: 40 min

Query block: Using the record for COc1ncnc(OC)c1NS(=O)(=O)c1ccc(CC(C)C)cc1-c1ccc(Cn2ccnc2C(C)(C)C)cc1 , report its half-life at 1 μM.
Result block: 9 min
